Quick reference for inhibition among some molecules
- target.entity: Cytochrome P450 2C19 (Homo sapiens)
- procedure.details: blockers of cytochrome P450 2C19 activity – biochemical, luminescence, ADME assay, primary screen (AID 778);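 also: plate controls were negative control wells for no effect and 2.5 mM tranylcypromine positive control for full effect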
- measurement.parameters: CYP2C19 Supersomes, luciferin-H EGE luminescence, 30 min; at 5 µM; hits give high values
Among all 96,000 compounds or so, about 20,000 (21%) were called active. Only a sample is shown.
readout.name: inhibition (%)

{"smiles.code": "CCOc1ccc(Cn2nnc(C(=O)Nc3ccc(OC)cc3OC)c2N)cc1", "readout.name": "inhibition", "quantitative.readout": -21.9}
{"smiles.code": "COc1ccc(NC(=O)c2cccc(NC(=O)c3ccco3)c2)c(OC)c1", "readout.name": "inhibition", "quantitative.readout": 15.1}
{"smiles.code": "COCCN(CC(=O)Nc1ccccc1C)S(=O)(=O)c1ccc(S(=O)(=O)N2CCCC2)cc1", "readout.name": "inhibition", "quantitative.readout": 5.4}
{"smiles.code": "COc1ccccc1N(CC(=O)N1CCCCC1)S(=O)(=O)c1ccccc1", "readout.name": "inhibition", "quantitative.readout": 25.2}
{"smiles.code": "COCCCN1C(=O)c2ccc(C(=O)Nc3ccc(OC)cc3OC)cc2C1=O", "readout.name": "inhibition", "quantitative.readout": 61.8}

---

- target.entity: Cytochrome P450 2C19 (Homo sapiens) (UniProt P33261)
- Sequence (P33261 whole entry, looked up): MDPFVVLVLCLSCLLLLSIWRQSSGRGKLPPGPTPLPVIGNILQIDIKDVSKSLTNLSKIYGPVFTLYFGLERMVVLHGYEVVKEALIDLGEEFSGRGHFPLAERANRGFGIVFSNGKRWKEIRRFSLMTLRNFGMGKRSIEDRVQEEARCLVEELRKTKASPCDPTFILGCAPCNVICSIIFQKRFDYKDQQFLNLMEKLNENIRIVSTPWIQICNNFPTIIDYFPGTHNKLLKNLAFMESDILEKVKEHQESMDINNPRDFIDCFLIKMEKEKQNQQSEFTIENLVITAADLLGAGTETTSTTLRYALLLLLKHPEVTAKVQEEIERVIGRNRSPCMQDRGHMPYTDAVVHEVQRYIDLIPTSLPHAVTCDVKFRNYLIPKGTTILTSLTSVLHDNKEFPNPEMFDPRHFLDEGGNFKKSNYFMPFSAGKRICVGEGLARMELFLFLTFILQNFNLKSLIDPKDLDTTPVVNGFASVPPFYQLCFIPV
- procedure.details: blockers of cytochrome P450 2C19 activity – biochemical, luminescence, ADME assay, primary screen (AID 778);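 also: plate controls were negative control wells for no effect and 2.5 mM tranylcypromine positive control for full effect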
- measurement.parameters: CYP2C19 Supersomes, luciferin-H EGE luminescence, 30 min; at 5 µM; hits give high values
In all, about 96,000 compounds went through this assay and about 20,000 (21%) were called active. Only a sample is shown.
Would you please tag the item condition met when its inhibition is 10% or above, and condition not met when it is below?

{"molecule": "CCc1nc(C)cn1S(=O)(=O)c1cc(OC)c(C)cc1C", "group.label": "condition met"}
{"molecule": "CC1CN(C(=O)CN2C(=O)NC(C)(c3ccccc3)C2=O)CC(C)O1 (stereo unspecified)", "group.label": "condition not met"}
{"molecule": "CCOC(=O)CNC(=O)CSc1nnnn1-c1cc(C)ccc1C", "group.label": "condition met"}
{"molecule": "Nc1c(-c2ccc(F)cc2)cnn1C1CCS(=O)(=O)C1 (stereo unspecified)", "group.label": "condition not met"}
{"molecule": "Cn1c(N)c(C(=O)COC(=O)C23CC4CC(CC(C4)C2)C3)c(=O)n(C)c1=O", "group.label": "condition met"}
{"molecule": "O=P(O)(CN1CCCCC1)CN1CCCCC1", "group.label": "condition not met"}
{"molecule": "O=c1c2ccccc2nnn1CSc1nnnn1-c1ccccc1", "group.label": "condition met"}
{"molecule": "O=c1c2ccccc2nc(CSc2nnnn2-c2ccccc2)n1-c1ccccc1", "group.label": "condition not met"}
{"molecule": "O=C(Cn1nnc2ccccc2c1=O)Nc1cc(C(F)(F)F)ccc1N1CCOCC1", "group.label": "condition met"}
{"molecule": "COC(=O)c1ccc(Cc2ccccc2)o1", "group.label": "condition not met"}
{"molecule": "Cc1ccc2c(c1)N(C(=O)CCC(=O)N1CCc3ccccc3C1)CCO2", "group.label": "condition met"}

---

- target.entity: Cytochrome P450 2C19 (Homo sapiens) (UniProt P33261)
- procedure.details: blockers of cytochrome P450 2C19 activity – biochemical, luminescence, ADME assay, primary screen (AID 778);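 also: plate controls were negative control wells for no effect and 2.5 mM tranylcypromine positive control for full effect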
- measurement.parameters: CYP2C19 Supersomes, luciferin-H EGE luminescence, 30 min; at 5 µM; hits give high values
Hit rate of the full screen: of about 96,000 compounds, about 20,000 (21%) were called active. Not all results are given here.
Would you please tag the item T when its inhibition is 30% or above, and F when it is below?

{"compound": "Cc1cccc(-n2nc3c(c2NC(=O)c2ccc(Br)o2)CSC3)c1C", "group.label": "F"}
{"compound": "O=C1C2(c3ccccc3)CN(CCCO)CC1(c1ccccc1)CN(CCCO)C2", "group.label": "F"}
{"compound": "O=C(O)c1cccnc1NC1CCCC1", "group.label": "F"}
{"compound": "CCc1cc2c(N3CCN(c4nnc(CC)s4)CC3)ncnc2s1", "group.label": "T"}
{"compound": "CCOC(=O)N1CCN(CC(=O)n2c(C)c(C)c3ccccc32)CC1", "group.label": "T"}
{"compound": "COc1ccc([N+](=O)[O-])cc1NC(=O)CCc1ccccc1", "group.label": "T"}
{"compound": "COC(=O)c1ccc(C(=O)Nc2cc(Cl)ccc2Cl)cc1NC(=O)c1ccccc1C", "group.label": "F"}
{"compound": "C=CCn1c(SCC(=O)c2ccc(Br)cc2)nnc1C(C)NC(=O)Cc1ccc(OC)cc1 (configuration not stated)", "group.label": "F"}
{"compound": "Cc1cccc(N2C(=O)SC(N(CC(=O)O)c3cccc(C)c3)C2=O)c1 (configuration not stated)", "group.label": "F"}
{"compound": "COc1ccc(OC)c(NC(=O)CC(Cc2ccccc2OC)C(=O)O)c1 (configuration not stated)", "group.label": "F"}
{"compound": "Cn1c(-c2sc3cc(C(F)(F)F)cnc3c2-c2ccccc2)n[nH]c1=S", "group.label": "T"}
{"compound": "O=C(CSc1nnc(-c2ccco2)n1-c1ccccc1)NCCc1ccccc1", "group.label": "T"}
{"compound": "CCN(CC)CCCNC(=O)CCc1ccccc1", "group.label": "F"}
{"compound": "COc1ccc2c(c1)cc1n2CCN=C1NN", "group.label": "T"}
{"compound": "C=CCn1c(SCc2c(C(=O)OC)sc(N)c2C(=O)OC)nnc1-c1ccc(Cl)cc1", "group.label": "T"}
{"compound": "Cc1cc(C)c2c(c1)c(C)cc1nnc(SCC(=O)NCc3ccco3)n12", "group.label": "T"}
{"compound": "Cc1ccc(F)c(NC(=O)CCc2ccccc2)c1", "group.label": "T"}
{"compound": "Cc1ccc(-n2ncc3c(N4CCN(c5ccc(F)cc5)CC4)ncnc32)c(C)c1", "group.label": "F"}
{"compound": "C=CCn1c(SCCOc2ccc(OC)cc2)nnc1C(NC(=O)c1ccc(OC)cc1)C(C)C (configuration not stated)", "group.label": "T"}
{"compound": "COC(=O)c1cc(NC(=O)CC2C(=O)NCCN2C(=O)c2ccc(F)cc2)cc(C(=O)OC)c1 (configuration not stated)", "group.label": "F"}
{"compound": "COc1ccc(-n2nnc3c(=O)n(CC(=O)OCc4ccccc4)cnc32)cc1", "group.label": "F"}
